List of T/C values.
# System: P388 leukemia ip, CD2F1 mice, survival T/C
# METHOD_DESCRIPTION: NCI In Vivo Anticancer Drug Screen. Data for tumor model P388 Leukemia (intraperitoneal) in CD2F1 (CDF1) mice
# PROTOCOL_CONDITIONS: endpoint: median survival time; dose: 200.0 mg/kg/injection; schedule: Q01DX009 (ip); vehicle: saline with Tween-80; higher = longer survival
Inconclusive results and toxic doses are left out.
MEASURED_QUANTITY: T/C

INSERT INTO measurements (compound, test_system, measured_quantity, measured_result) VALUES
  ('ClCC1(CCl)COC(c2ccccc2)OC1', 'P388 leukemia ip, CD2F1 mice, survival T/C', 'T/C', '100 % of control'),
  ('CCC(C)C(=O)/C=C/c1ccc(Cl)c(Cl)c1 (configuration not stated)', 'P388 leukemia ip, CD2F1 mice, survival T/C', 'T/C', '99 % of control'),
  ('CN(C(=O)OCc1ccccc1)c1ccc(C(=O)NC(CCC(=O)OCc2ccccc2)C(=O)OCc2ccccc2)cc1 (configuration not stated)', 'P388 leukemia ip, CD2F1 mice, survival T/C', 'T/C', '94 % of control'),
  ('NC(C(=O)O)C(=O)c1ccccc1 (configuration not stated)', 'P388 leukemia ip, CD2F1 mice, survival T/C', 'T/C', '100 % of control'),
  ('CC(O)(c1ccccc1)C(CCl)N1CCCCC1 (configuration not stated)', 'P388 leukemia ip, CD2F1 mice, survival T/C', 'T/C', '105 % of control'),
  ('CC(=O)NC1C(S[As](C)C)OC(COC(C)=O)C(OC(C)=O)C1OC(C)=O (configuration not stated)', 'P388 leukemia ip, CD2F1 mice, survival T/C', 'T/C', '115 % of control'),
  ('OCC1OC(n2cnc3c(=S)nc[nH]c32)C(O)C1O (configuration not stated)', 'P388 leukemia ip, CD2F1 mice, survival T/C', 'T/C', '100 % of control'),
  ('COC(=O)C1CCc2c(cnn2-c2ccccn2)C1 (configuration not stated)', 'P388 leukemia ip, CD2F1 mice, survival T/C', 'T/C', '100 % of control'),
  ('COC(=O)c1cccc(COc2ccc([N+](=O)[O-])cc2Cl)c1', 'P388 leukemia ip, CD2F1 mice, survival T/C', 'T/C', '100 % of control'),
  ('CC(=O)c1ccc(OCc2ccccc2)c(OCc2ccccc2)c1', 'P388 leukemia ip, CD2F1 mice, survival T/C', 'T/C', '95 % of control'),
  ('Nc1c(Cl)c(Cl)nc(C(=O)O)c1Cl', 'P388 leukemia ip, CD2F1 mice, survival T/C', 'T/C', '111 % of control'),
  ('O=C1OC(C(=O)O)c2ccc3c(c21)OCO3 (configuration not stated)', 'P388 leukemia ip, CD2F1 mice, survival T/C', 'T/C', '98 % of control');

###

List of T/C values.
# System: P388 leukemia ip, CD2F1 mice, survival T/C
# METHOD_DESCRIPTION: NCI In Vivo Anticancer Drug Screen. Data for tumor model P388 Leukemia (intraperitoneal) in CD2F1 (CDF1) mice
# PROTOCOL_CONDITIONS: endpoint: median survival time; dose: 25.0 mg/kg/injection; schedule: Q01DX005 (ip); vehicle: saline; higher = longer survival
Toxic doses and inconclusive results are not listed.
MEASURED_QUANTITY: T/C

INSERT INTO results (compound, measured_result) VALUES
  ('CN(C)Cc1cn(C)c2ccccc12', '93 % of control'),
  ('O=C(O)c1ccccc1-c1c2cc(Br)c(=O)cc-2oc2[c]([Hg])c(O)c(Br)cc12', '107 % of control'),
  ('C1CN2CCN3CCCN(CCN(C1)C2)C3', '107 % of control'),
  ('COC1OCC(N=[N+]=[N-])C(O)C1O (configuration not stated)', '98 % of control'),
  ('C/C=N/NCCC#N', '90 % of control'),
  ('O=C1c2ccccc2-c2c1nc1ccccc1[n+]2[O-]', '96 % of control'),
  ('CCCCC(CCCCCC(CCCC)C1NC(C)Cc2cc(OC)c(OC)cc21)C1NC(C)Cc2cc(OC)c(OC)cc21 (configuration not stated)', '90 % of control');
